Biological target: Glandular kallikrein (Sus scrofa, UniProt P00752)
Assay: Inhibitory activity against beta-kallikrein
Ki values by entry
Give the quantity in µM, number only.

IN: Observed Ki on Glandular kallikrein (Sus scrofa, UniProt P00752) for "Ac-SPFRSVQ-NH2" , please.
OUT: 101

IN: Here is the next substance: "Ac-SPFRSV-NH2"
OUT: 135

IN: Here is the next substance: "Ac-PFRSVQ-NH2"
OUT: 167

###

Target sequence: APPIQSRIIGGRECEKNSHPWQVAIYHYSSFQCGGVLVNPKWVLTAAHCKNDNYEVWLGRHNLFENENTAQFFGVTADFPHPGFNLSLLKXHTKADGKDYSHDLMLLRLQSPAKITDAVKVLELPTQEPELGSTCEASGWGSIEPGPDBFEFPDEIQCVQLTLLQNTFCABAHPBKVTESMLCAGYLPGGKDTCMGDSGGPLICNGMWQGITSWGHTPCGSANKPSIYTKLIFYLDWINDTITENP
Residues, ends and D or L forms follow the SMILES beside them.
pKi values by entry
The meaning of pKi here: minus log10 of the concentration in molar units.

CC(=O)N[C@@H](CCCNC(=N)N)C(=O)N[C@@H](CO)C(=O)N[C@H](C(=O)N[C@@H](CCC(N)=O)C(N)=O)C(C)C (Ac-RSVQ-NH2) : 3.02
CC(=O)N1CCC[C@H]1C(=O)N[C@@H](Cc1ccccc1)C(=O)N[C@@H](CCCN=C(N)N)C(=O)N[C@@H](CO)C(N)=O (Ac-PFRS-NH2) : 3.24
CC(=O)N[C@@H](CO)C(=O)N1CCC[C@H]1C(=O)N[C@@H](Cc1ccccc1)C(=O)N[C@@H](CCCN=C(N)N)C(N)=O (Ac-SPFR-NH2) : 2.64
CC(=O)N[C@@H](Cc1ccccc1)C(=O)N[C@@H](CCCNC(=N)N)C(=O)N[C@@H](CO)C(N)=O (Ac-Phe-Arg-Ser-NH2) : 3.14

// next entry
IN: Would you mind telling me what pKi value was observed for CC(=O)N[C@@H](Cc1ccccc1)C(=O)N[C@@H](CCCNC(=N)N)C(=O)N[C@@H](CO)C(=O)N[C@H](C(N)=O)C(C)C (Ac-FRSV-NH2) ?
OUT: 3.32
